# Test system: Peronospora tabacina R strain
# Method Description: Control of downy mildew in tobacco, fungal isolate R (sporulation inhibition)
# Type: in vivo
# Experimental Parameters: 400 mg/L active ingredient; fungal isolate R; Table 30
Value Type: Percent Disease Control (%)
Only the number, expressed in %, is required.

# count of solved cases: 3
**Q:** // query Percent Disease Control value for entry CCNC(=O)NC(=O)/C(C#N)=N/OC [Cymoxanil]
**A:** 62

**Q:** Ok, now COCC(=O)N(c1c(C)cccc1C)[C@H](C)C(=O)OC [RIDOMILGOLD]
**A:** 42

**Q:** Check CC(N)CC(=O)O (stereo not drawn) [BABA, DLβ-amino-butanoic acid] too.
**A:** 100

---
**Q:** Query: Percent Disease Control; subject: CSC(=O)c1cccc2nnsc12 [BION, Acibenzolar-s-methyl]
**A:** 80

---

# System: Pseudoperonospora cubensis (resistance to metalaxyl)
# Experimental Parameters: in vivo
Measured ED90 values are reported for all entries that follow.
Dear colleague, please return just the value in µg/mL, with no unit written.

For orientation, consider the following solved cases.
**Q:** Which value of ED90 has been reported for COCC(=O)N(c1c(C)cccc1C)[C@H](C)C(=O)OC (single isomer, unassigned) [Metalaxyl Single Isomer] in the records?
**A:** 844

**Q:** Entry to check: [Cu+2].[OH-].[OH-] [Cu(OH)2, copper hydroxide]
**A:** 304

**Q:** Note, next up: O=C1c2ccccc2C(=O)N1SC(Cl)(Cl)Cl [FOLPET, Folpet]
**A:** 403

Next item in the queue.
**Q:** Give the measured ED90 of Cc1ccc(C(C)NC(=O)[C@@H](NC(=O)OC(C)C)C(C)C)cc1 (stereo partly shown) [Fencaramid] .
**A:** 19

---

# Tested on: Peronospora tabacina R strain
# Method Description: Control of downy mildew in tobacco, fungal isolate R (sporulation inhibition)
# Type: in vivo
# Experimental Parameters: 100 mg/L active ingredient; fungal isolate R; Table 30
Value Type: Percent Disease Control (%)
# unit: % | format: bare number

Record excerpt, results attached:
**Q:** Form field: Percent Disease Control recorded for "COCC(=O)N(c1c(C)cccc1C)[C@H](C)C(=O)OC" with Peronospora tabacina R strain (enter value)
**A:** 20

**Q:** Also, CC(N)CC(=O)O (stereo not shown) please.
**A:** 37

**Q:** Would you mind doing "CSC(=O)c1cccc2nnsc12" as well?
**A:** 37

Now for a further compound.
**Q:** Lab note: need Percent Disease Control for "CCNC(=O)NC(=O)/C(C#N)=N/OC" on Peronospora tabacina R strain, anyone have it?
**A:** 25
